Answer each item with its documented pEC50.
Molecular target: GLP-1 Receptor (Homo sapiens)
Sequence (P43220 24-463, species assumed): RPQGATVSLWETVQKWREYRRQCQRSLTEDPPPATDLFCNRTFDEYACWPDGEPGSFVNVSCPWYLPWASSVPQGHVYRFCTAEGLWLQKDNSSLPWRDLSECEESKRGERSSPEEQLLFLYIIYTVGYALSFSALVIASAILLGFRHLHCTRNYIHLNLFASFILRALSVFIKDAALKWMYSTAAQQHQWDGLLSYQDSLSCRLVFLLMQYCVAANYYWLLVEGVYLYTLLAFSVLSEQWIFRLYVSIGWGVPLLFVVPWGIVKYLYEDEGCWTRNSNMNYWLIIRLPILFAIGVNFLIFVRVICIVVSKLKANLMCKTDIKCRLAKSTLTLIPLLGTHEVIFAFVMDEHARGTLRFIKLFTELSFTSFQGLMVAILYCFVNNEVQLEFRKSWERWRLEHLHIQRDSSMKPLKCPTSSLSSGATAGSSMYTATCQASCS
Assay: GLP-1R agonist cAMP stimulation assay (HEK293/GLP1R/CRE-LUC cells, cAMP dynamic 2 kit)
Format: cell-based
Settings: HEK293/CRE-Luc cell line stably expressing the GLP-1 Receptor; 30 min incubation at 37° C.; read-out: GLP1R cAMP Stimulation DR: EC50
Protocol: Activation of GLP-1 receptor is known to stimulate cyclic AMP (cAMP) production in cells which indicates primary coupling to the Gas subunit of the G protein heterotrimeric complex. To optimize functional activity directed toward Gas coupling, a HEK293/CRE-Luc cell line developed by HDB stably expressing the GLP-1 Receptor was used. […] Seal the plate and incubate at 37° C. with 5% CO2 for 30 min. After incubation the cAMP assay signal was generated using cAMP dynamic 2 Kit (Cisbio). […]
Numbers only, as −log10 of the molar value.

>  <molecule>
O=C(O)c1ccc2nc(CN3CCC(Oc4ccnc(Cc5ccc(Cl)cc5F)n4)C(F)(F)C3)n(C[C@@H]3CCO3)c2n1 (stereo partly shown) [Compound 168a]

>  <pEC50>
8.92

$$$$

Dear reader, for each entry below, please note its pEC50.
1. N#CC1(Cn2c(C[C@H]3CC[C@H](Oc4ccnc(Cc5ccc(Cl)cc5)n4)CC3)nc3ccc(C(=O)O)nc32)CC1 [Compound 178a]
2. O=C(O)c1ccc2nc(CN3CCC(Oc4ccnc(Cc5ccc(Cl)cc5F)n4)CC3)n(C[C@@H]3CCO3)c2n1 [Compound 113a]
3. Clc1ccc(Cc2nccc(OC3CCN(Cc4nc5ccc(-c6nnn[nH]6)nc5n4C[C@@H]4CCO4)CC3)n2)cc1 [Compound 199a]
4. O=C(O)c1ccc2nc(CN3CCC(Oc4ccnc(Cc5ccc(Cl)cc5F)n4)CC3)n(C[C@@H]3CCO3)c2c1 [Compound 160a]
5. O=C(O)c1ccc2nc(CN3CCC(Oc4ccnc(Cc5ccc(Cl)cc5)c4)CC3)n(C[C@@H]3CCO3)c2n1 [Compound 159a]
6. O=C(O)c1ccc2nc(C[C@H]3CC[C@H](Oc4nc(Cc5ccc(Cl)cc5)ncc4F)CC3)n(C[C@@H]3CCO3)c2n1 [Compound 188a]
7. O=C(O)c1ccc2nc(C[C@H]3CC[C@H](Oc4ccnc(Cc5ccc(Cl)cc5)n4)CC3)n(C[C@@H]3CCO3)c2n1 [Compound 177a]
8. O=C(O)c1ccc2nc(C[C@H]3CC[C@H](Oc4cccc(Cc5ccc(Cl)cc5F)n4)CC3)n(C[C@@H]3CCO3)c2n1 [Compound 174b]

*A*
1. 10.00
2. 10.42
3. 9.02
4. 9.92
5. 8.64
6. 10.35
7. 10.38
8. 9.85

Each molecule below has a reported value. Please supply its pEC50.
1. O=C(O)c1ccc2nc(CN3CCC(Oc4cccc(C(F)(F)c5ccc(Cl)cc5F)n4)CC3)n(C[C@@H]3CCO3)c2n1 [Compound 129a]
2. O=C(O)c1ccc2nc(C[C@H]3CC[C@H](Oc4ccnc(Cc5ccc(Cl)cc5F)n4)CC3)n(C[C@@H]3CCO3)c2n1 [Compound 175b]

*A*
[9.04, 10.20]

*Q* # pEC50 lookup, item N#Cc1ccc(Cc2nccc(O[C@H]3CC[C@H](Cc4nc5ccc(C(=O)O)nc5n4C[C@@H]4CCO4)CC3)n2)cc1 [Compound 182a]
*A* 10.15

Origin of the recorded values: patent US20230071840A1
